Data provenance is patent US9926281B2.

I'd appreciate it if you could supply pIC50 values for the items below.
Molecular target: human TACE (Homo sapiens (Human), UniProt P78536)
Sequence (P78536 whole entry, looked up, change not shown): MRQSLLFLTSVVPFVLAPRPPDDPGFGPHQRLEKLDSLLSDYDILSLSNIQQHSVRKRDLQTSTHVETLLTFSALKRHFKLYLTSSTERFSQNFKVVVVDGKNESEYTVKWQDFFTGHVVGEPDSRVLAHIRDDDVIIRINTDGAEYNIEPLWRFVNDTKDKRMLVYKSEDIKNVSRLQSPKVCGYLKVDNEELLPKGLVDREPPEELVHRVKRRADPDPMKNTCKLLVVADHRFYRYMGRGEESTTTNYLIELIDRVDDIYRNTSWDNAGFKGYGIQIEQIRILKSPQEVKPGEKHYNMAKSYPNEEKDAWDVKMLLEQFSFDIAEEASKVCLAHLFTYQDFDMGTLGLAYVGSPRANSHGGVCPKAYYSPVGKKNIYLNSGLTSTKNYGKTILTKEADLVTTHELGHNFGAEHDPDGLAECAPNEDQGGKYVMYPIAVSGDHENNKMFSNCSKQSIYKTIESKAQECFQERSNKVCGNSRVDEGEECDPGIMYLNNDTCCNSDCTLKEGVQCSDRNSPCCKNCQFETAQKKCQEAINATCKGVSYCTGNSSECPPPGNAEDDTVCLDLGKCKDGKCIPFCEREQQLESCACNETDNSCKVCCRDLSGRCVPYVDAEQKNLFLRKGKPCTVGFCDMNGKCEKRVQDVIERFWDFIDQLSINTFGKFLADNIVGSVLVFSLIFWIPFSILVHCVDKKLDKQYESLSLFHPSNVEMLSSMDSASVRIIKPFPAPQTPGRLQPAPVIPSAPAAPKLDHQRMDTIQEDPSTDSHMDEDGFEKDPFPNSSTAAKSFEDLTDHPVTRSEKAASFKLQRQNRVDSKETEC
Settings: read-out: TACE potency IC50
pIC50: −log10 of the molar value.

molecule | readout | recorded_result
Cc1ccc(C2(CCC(=O)N3CCN(c4ccc(F)c(Cl)c4)[C@@H](C)C3)NC(=O)NC2=O)cn1 (stereo partly shown) [compound 287] | pIC50 | < 5.40
O=C1NC(=O)C(CCC(=O)N2CCN(c3ccc(F)c(F)c3)CC2)(C2CC2)N1 (stereo not shown) [compound 113] | pIC50 | < 4.70
C[C@H]1CN(C(=O)CCC2(C3CC3)NC(=O)NC2=O)CCN1c1ccc2ncsc2c1 (stereo partly shown) [compound 305] | pIC50 | < 4.70

Query: Consider the molecule NCC1(CCC(=O)N2CCN(c3cccc(Cl)c3)CC2)NC(=O)NC1=O (stereo not shown) [compound 171] tested on human TACE (Homo sapiens (Human), UniProt P78536); state its pIC50.
Response: < 4.70
